assay: Tested for inhibitory concentration required to inhibit 50% of histone deacetylase (HDAC) purified from human T cell leukemia Jurkat cell
Quantity measured: IC50 (nM)

INSERT INTO assay_data (molecule, unit_symbol, endpoint_result) VALUES
  ('O=C(NCC1CCC(C(=O)NO)CC1)c1ccc(-c2ccccc2)cc1 (centres undefined)', 'nM', 310);

A: O=C(NO)c1ccc(CNC(=O)c2ccc(-c3ccccc3)cc2)cc1
B: O=C(NO)c1ccc(CNC(=O)c2ccc3ccccc3c2)cc1
C: O=C(NO)c1ccc(CNC(=O)c2cccc3ccccc23)cc1
*Q* Sort low-to-high on IC50, please. List each label, following the requested order.
*A* B, A, C
